- test_description: Selectivity index, ratio of CC50 for cytotoxicity against mouse BMDM cells to IC50 for antileishmanial activity against Leishmania amazonensis intracellular amastigotes
- Format: toxicity, cell-based
- condition_parameters: read-out: Ratio CC50/IC50
quantity_name: selectivity ratio
Answers are plain numbers.

Report selectivity ratio for CCCCCCCCNCc1ccc2c(c1)C(=O)CC(C)(C)O2 please.
1.6

---

- System: Leishmania major
- test_description: Antileishmanial activity against Leishmania major MHOM/IR/-173 assessed as reduction in parasite viability measured for 48 hrs by alamar-blue dye based analysis
- Type: functional, organism-based
- condition_parameters: MHOM/IR/-173, 48 h
quantity_name: pIC50
Give bare numbers, as −log10 of the molar value.

Report pIC50 for Cc1ccc(Cn2cc(COC3=CC(=O)c4ccccc4C3=O)nn2)cc1 please.
5.83

---

- Tested on: Leishmania donovani
- test_description: Antileishmanial activity against Leishmania donovani amastigotes assessed as parasite growth inhibition incubated for 72 hrs by MTS assay
- Type: functional, organism-based
quantity_name: pIC50
Numbers only, as −log10 of the molar value.

                              sample_smiles  target_or_test_system  quantity_name  numeric_readout
0  C#CCN1C(=O)CN(/N=C/c2ccc([N+](=O)[O-])o2)C1=O    Leishmania donovani          pIC50             5.52

Report pIC50 for CCCCCCCn1cc(CN2C(=O)CN(/N=C/c3ccc([N+](=O)[O-])o3)C2=O)nn1 please.
6.74

---

- System: Leishmania major
- test_description: Antileishmanial activity against Leishmania major IR-173 promastigotes assessed as inhibition of parasite growth incubated for 48 hrs by resazurin dye based assay
- Format: functional, organism-based
- condition_parameters: IR-173, 48 h
quantity_name: pIC50
Answers are plain numbers, as −log10 of the molar value.

>>> print(df.to_string())
                              sample_smiles  numeric_readout
0  O=C(N/N=C/c1ccc([N+](=O)[O-])o1)c1ccc(OCc2ccccc2)cc1             4.41

Kindly state the measured pIC50 obtained for O=C(N/N=C/c1ccc([N+](=O)[O-])o1)c1ccc(OCc2ccc(F)cc2)cc1 with Leishmania major.
6.55

---

- test_description: Selectivity index, ratio of CC50 for cytotoxicity against HEK293 cells to IC50 for antileishmanial activity against Leishmania major IR-173 promastigotes
- Format: toxicity, cell-based
- condition_parameters: human, read-out: Ratio CC50/IC50
quantity_name: selectivity ratio

Report selectivity ratio for Cc1ccc(Cn2cc(COC3=CC(=O)c4ccccc4C3=O)nn2)cc1 please.
> 55

---

- System: Leishmania infantum
- test_description: Antileishmanial activity against Leishmania infantum MCAN/ES/89/IPZ229/1/89 axenic amastigotes assessed as reduction in parasite growth treated for 24 hrs by PI staining based flow cytometry
- Assay type: functional, organism-based
- condition_parameters: MCAN/ES/89/IPZ229/1/89, 24 h
quantity_name: IC50 (µM)
Give bare numbers, in µM.

Report IC50 for Nc1ccnn1C(=O)C1CCC2(CC1)OOC1(O2)C2CC3CC(C2)CC1C3 (stereo unspecified) please.
219

---

- test_description: Selectivity index, ratio of CC50 for human HepG2 cells to EC50 for GFP-expressing Leishmania infantum intracellular amastigotes infected in human THP-1 derived macrophage cells
- Format: toxicity, cell-based
- condition_parameters: read-out: Ratio CC50/EC50
For each entry below, report its selectivity ratio value.

                                   compound  result
0  Nc1ccnn1C(=O)C1CCC2(CC1)OOC1(O2)C2CC3CC(C2)CC1C3 (configuration not stated)     < 5

Let us move to another entry and its selectivity ratio.
Report selectivity ratio for Nc1ccn(C(=O)C2CCC3(CC2)OOC2(O3)C3CC4CC(C3)CC2C4)n1 (configuration not stated) please.
< 5

---

- test_description: Cytotoxicity against primary peritoneal mouse macrophages cells assessed as reduction in cell growth measured after 24 hrs by colorimetric assay
- Assay type: toxicity, cell-based, Macrophage
quantity_name: CC50 at 24 h

Report CC50 at 24 h for CCCCCCCCCCn1cc(CNCCNc2ccnc3cc(Cl)ccc23)nn1 please.
18.2 µM

---

- test_description: Selectivity index, ratio of CC50 for cytotoxicity against mouse J774.A1 cells to IC50 for antileishmanial activity against Leishmania amazonensis axenic amastigote assessed as inhibition of parasite growth
- Assay type: toxicity, cell-based
- condition_parameters: read-out: Ratio CC50/IC50
quantity_name: selectivity ratio

Report selectivity ratio for CC(=O)Oc1ccc(CN2CNC(=O)C=N2)cc1C1OC(c2cccc(Cl)c2)=NN1C(C)=O (stereo unspecified) please.
2.4

---

For each entry below, report its IC50 value.
- Test system: Leishmania amazonensis
- test_description: Antileishmanial activity against Leishmania amazonensis MHOM/BR/75/Josefa promastigotes assessed as reduction in parasite viability after 72 hrs by Neubauer chamber counting method
- Type: functional, organism-based
One number for each entry, in µM.

In [3]: df
Out[3]:
                              sample_smiles   target_or_test_system  quantity_name  unit_tag  numeric_readout
0  CN(C)c1ccc(-c2nc(C3=NCCO3)cc3c2[nH]c2ccccc23)cc1  Leishmania amazonensis           IC50        µM              6.1

Let us move to another entry and its IC50.
Report IC50 for CN(C)c1ccc(-c2nc(C(=O)NCCCl)cc3c2[nH]c2ccccc23)cc1 please.
16.8
